- Tested on: Nilaparvata lugens
- Protocol description: Insecticidal activities to plant hopper, spraying method
- Format: in vivo
- Experimental context: in vivo
Quantity name: Nilaparvata lugens Mortality (%) 500 ppm
Write the value in % as a bare number.

[[record]]
compound = "CCN(Cc1ccc(Cl)nc1)C(=NC)C(=Cc1ccsc1)[N+](=O)[O-]"
quantity_name = "Nilaparvata lugens Mortality (%) 500 ppm"
observed_value = 100

[[record]]
compound = "O=[N+]([O-])C(=Cc1ccsc1)C1=NCCCN1Cc1ccc(Cl)nc1"
quantity_name = "Nilaparvata lugens Mortality (%) 500 ppm"
observed_value = 100

[[record]]
compound = "CN=C(C(=Cc1ccc([N+](=O)[O-])o1)[N+](=O)[O-])N(C)Cc1cnc(Cl)s1"
quantity_name = "Nilaparvata lugens Mortality (%) 500 ppm"
observed_value = 43


Query: May I ask what Nilaparvata lugens Mortality (%) 500 ppm has been recorded for CCN(Cc1ccc(Cl)nc1)C(=NC)C(=Cc1ccco1)[N+](=O)[O-] [Compound 179] ?
Result: 100
